system: Escherichia coli TOP10; experiment: shrunken log2 fold change of peptide-encoding DNA abundance (4.5 h post-induction vs induction); higher = less antimicrobial activity (less host growth inhibition); settings: time post-induction: 4.5 h; library: site-saturation at positions 5, 18, 19, 20
endpoint-label: shrunken log2 fold change
Lab note: jot the number down without any unit.

Answered examples (4):
chain-sequence: RRIRYRPPRLPRPRPRPAAIPRP
shrunken log2 fold change: -0.092
//
chain-sequence: RRIRERPPRLPRPRPRPLAGPRP
shrunken log2 fold change: -0.113
//
chain-sequence: RRIRQRPPRLPRPRPRPHSYPRP
shrunken log2 fold change: 0.0443
//
chain-sequence: RRIRLRPPRLPRPRPRPKITPRP
shrunken log2 fold change: -0.203

[ask] Give shrunken log2 fold change (Escherichia coli TOP10) of the following sequence: "RRIRFRPPRLPRPRPRPEFKPRP"
[reply] -0.0568

[ask] What do you get for "RRIRTRPPRLPRPRPRPLSIPRP" ?
[reply] -0.487

[ask] Now consider "RRIRFRPPRLPRPRPRPWYMPRP" and answer again.
[reply] -0.991

[ask] Note, next up: "RRIRARPPRLPRPRPRPQMTPRP"
[reply] 0.0889

[ask] And the next one, "RRIRKRPPRLPRPRPRPNEGPRP" ?
[reply] 0.0728

[ask] Thanks! And "RRIRNRPPRLPRPRPRPAWAPRP" ?
[reply] -0.0271

[ask] Similarly, "RRIRLRPPRLPRPRPRPKIAPRP" ?
[reply] -0.203

[ask] And for "RRIRKRPPRLPRPRPRPYRMPRP" ?
[reply] -0.329

[ask] Repeat for the following sequence: "RRIRWRPPRLPRPRPRPEWPPRP"
[reply] 0.956

[ask] Next: "RRIRHRPPRLPRPRPRPWLAPRP"
[reply] -0.26

[ask] Proceed to "RRIRMRPPRLPRPRPRPTPWPRP"
[reply] 0.844

====

system: Escherichia coli TOP10; assay: shrunken log2 fold change of peptide-encoding DNA abundance (4.5 h post-induction vs induction); higher = less antimicrobial activity (less host growth inhibition); details: time post-induction: 4.5 h; library: site-saturation at positions 5, 18, 19, 20;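 further: peptides expressed intracellularly from a pBAD plasmid library in pooled LB shake-flask culture, induced with 0.3% L-arabinose, DNA abundance read by NGS, three biological replicates, DESeq2 with apeglm shrinkage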
endpoint-label: shrunken log2 fold change
Number, no unit, nothing else.

Use these answered entries as a reference point.
chain-sequence: RRIRYRPPRLPRPRPRPDCGPRP
shrunken log2 fold change: -0.398
//
chain-sequence: RRIRFRPPRLPRPRPRPYVQPRP
shrunken log2 fold change: -0.0133
//
chain-sequence: RRIRFRPPRLPRPRPRPVGGPRP
shrunken log2 fold change: 0.405

[ask] Field request: shrunken log2 fold change | item: "RRIRWRPPRLPRPRPRPYICPRP"
[reply] -0.329

[ask] Next record, please: "RRIRKRPPRLPRPRPRPSIKPRP"
[reply] -0.004

[ask] Also need "RRIRYRPPRLPRPRPRPAPHPRP" , thanks.
[reply] -0.247

[ask] Now this one: "RRIRIRPPRLPRPRPRPMCFPRP"
[reply] -0.343

[ask] Another sequence: "RRIRDRPPRLPRPRPRPLACPRP"
[reply] 0.945

[ask] Consider next the sequence "RRIRDRPPRLPRPRPRPYFCPRP" in the same way.
[reply] -0.177

[ask] And what about the sequence "RRIRPRPPRLPRPRPRPVAYPRP" ?
[reply] -0.173

[ask] For "RRIRERPPRLPRPRPRPCQIPRP" then?
[reply] -0.193

[ask] What about this sequence? "RRIRYRPPRLPRPRPRPDPMPRP"
[reply] -0.0159

[ask] Another sequence: "RRIRLRPPRLPRPRPRPDCKPRP"
[reply] 0.0852

[ask] Could you do the same for "RRIRNRPPRLPRPRPRPQHQPRP" , please?
[reply] -0.135

[ask] Cool, now "RRIRTRPPRLPRPRPRPTVWPRP"
[reply] -0.049
